- Assay Explanation: Pharmacokinetic study in the guinea pig, 10 mg/kg oral dosing
- Assay type: in vivo
- Parameters: unit not given beside the values
- Cond: dose-normalised AUC
- Protocol: Pharmacokinetic studies in the guinea pig were run using 1 mg/kg IV dosing (20% DMA, 40% TEG, 40% water) and 10 mg/kg oral dosing (2% Tween-80, 98% HPMC (1% water)).
Endpoint Name: DNAUC(0-inf)
Returns: the value as a bare number; no unit string appended.

>>> result_number("O=S(=O)(N1CCN(c2ccc(/C=C/c3cc(F)cc(-c4ccncc4)c3)cc2)CC1)C(F)(F)F [drawing 726]")
164.6
>>> result_number("CC(=O)N1CCN(c2ccc(/C=C/c3cc(F)cc(-c4ccncc4)c3)cc2)CC1")
823.1
>>> result_number("O=S(=O)(C1CC1)N1CCN(c2ccc(/C=C/c3cc(F)cc(-c4ccncc4)c3)cc2)CC1 [drawing 724]")
160

Turning now to a further compound:
Request: Entry CCS(=O)(=O)N1CCN(c2ccc(/C=C/c3cc(F)cc(-c4ccncc4)c3)cc2)CC1 [drawing 725] has what DNAUC(0-inf)?
Result: 330.1
